Source of measurements: patent US20240209086A1

Quick reference: CD25 Activation, Day 6, PB of the listed items.
# ASSAYED TARGET: canine CD3 on canine T cells (canine PBMC) (canine, UniProt P27597 22-202)
# Sequence (P27597 22-202 limits assumed, chain 1 of 3): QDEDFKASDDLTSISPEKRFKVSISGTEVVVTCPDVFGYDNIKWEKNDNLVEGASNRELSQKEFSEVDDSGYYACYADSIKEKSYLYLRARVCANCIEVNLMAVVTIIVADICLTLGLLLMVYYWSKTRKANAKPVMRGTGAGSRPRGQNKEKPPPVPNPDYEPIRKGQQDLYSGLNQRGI
# Sequence (chain, as listed by the source limits assumed, chain 2 of 3): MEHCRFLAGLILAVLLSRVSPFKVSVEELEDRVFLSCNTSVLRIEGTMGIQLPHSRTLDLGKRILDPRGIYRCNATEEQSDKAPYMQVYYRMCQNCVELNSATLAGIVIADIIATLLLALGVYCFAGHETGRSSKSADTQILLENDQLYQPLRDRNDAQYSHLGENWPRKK
# Sequence (chain, as listed by the source limits assumed, chain 3 of 3): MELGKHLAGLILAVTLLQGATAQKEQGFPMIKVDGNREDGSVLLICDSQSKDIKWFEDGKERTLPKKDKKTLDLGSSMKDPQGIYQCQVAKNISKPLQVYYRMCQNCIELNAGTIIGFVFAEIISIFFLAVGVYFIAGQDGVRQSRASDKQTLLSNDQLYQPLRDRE
# TEST: cell-based or functional assay
Hey, just send me the number, nothing else.

So for PMX191 (monospecific anti-canine CD3, canine IgG-B effector function deficient Fc) (antibody, V domains shown) VH: EVQLVESGGDLVKPAGSLRLSCVASGFTFSDYSMSWVRQGPEKGLQLVAGMNSDGSTTYYTDAVRGRFTISRDNAKNTMYLQMNSLRDEDTAIYYCAKGAAAPDYWGQGTLVTVSS VL: SYELTQPPSVNVTLRETAHITCGGDRIGSKYVQWIQQIPGQAPVVIIYKDNNRPTGIPERFSGANSGNTATLTISGALAEDEADYYCQVGDNYTWVFGEGTQLTVL , the logged CD25 Activation, Day 6, PB turned out to be 10.5

So for PMX166 (monospecific anti-canine CD3, canine IgG-B effector function deficient Fc) (antibody, V domains shown) VH: ELTLQESGPGLVKPSQTLSLTCVVSGGSVTSSYFWNWIRQRPGRGLEWMGYWTGSTIYSPAFQGRISITPDTAKNQFSLQLSSMTTEDTAVYYCSREGGSTLGAFAYWGQGTLVTVSS VL: SYVLTQLPSKNVTLKQPAHITCGGDNIGSKSVHWYQQKLGQAPVLIIYYDSSRPTGIPERFSGANSGNTATLTISGALAEDEADYYCQVWDSSAKASVFGGGTHLTVL , the logged CD25 Activation, Day 6, PB turned out to be 14.5
